assay: growth inhibition, single agents and combos, LFS_MB_1R, cell-based, cisplatin or BGB combos, synergistic combos for chromothripsis tumors (AID 1671452); settings: LFS_MB_1R medulloblastoma cells, measured here: combination with BGB IC40, at 0.05 µM, stronger effect = higher value;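 note: cells exposed for 96 hours before readout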
OBSERVATION_TYPE: inhibition (%)

- Nc1nc(=S)c2[nH]cnc2[nH]1: 5.91
- Nc1nc2c(ncn2COC(CO)CO)c(=O)[nH]1: -58.1
- Cc1nc2ccc(CN(C)c3ccc(C(=O)N[C@@H](CCC(=O)O)C(=O)O)s3)cc2c(=O)[nH]1: -24.2

* * *

Parameter: tube area decrease. Scope: all listed entries.
experiment: inhibition of endothelial tube formation, primary screen, imaging, VEGF stimulated, CD31 staining, tube area, NPC library (AID 1117340); conditions: VEGF-stimulated ADSC/ECFC co-culture, at 10 µM, stronger effect = higher value
OBSERVATION_TYPE: tube area decrease (%)

- CC(=O)Oc1ccc(C(c2ccc(OC(C)=O)cc2)c2ccccn2)cc1: 15.6
- CCO/C([O-])=N/c1c[n+](N2CCOCC2)no1: 2.4
- CCCCCCc1ccc(O)cc1O: 30.7
- C[C@@H]1CC[C@@]2(OC1)O[C@H]1C[C@H]3[C@@H]4CC[C@H]5C[C@@H](O)CC[C@]5(C)[C@H]4CC(=O)[C@]3(C)[C@H]1[C@@H]2C: -13.1
- Nc1nc2c(c(=O)[nH]1)N(C=O)C(CNc1ccc(C(=O)N[C@@H](CCC(=O)O)C(=O)O)cc1)CN2 (stereo not given in full): 1.3
